# Tested on: B16
# assay: MTT cell proliferation assay, B16
# Type: cell-based, murine
# settings: Mus musculus, B16, 72 h, read-out: IC50 ± SD B16
pIC50: −log10 of the molar value.

{"molecule": "O=C(CCCCCCNC(=O)c1cnc(N(c2ccccc2)c2ccccc2)nc1)NO [Ricolinostat, reference compound]", "pIC50": 4.05}

* * *

# Tested on: HEK 293
# assay: MTT cell proliferation assay, HEK 293
# Type: cell-based, human
# settings: MTT, 72 h; mean ± SD, triplicate; read-out: IC50 ± SD HEK 293

{"molecule": "CC(/C=C/C(=O)NO)=C\\[C@@H](C)C(=O)c1ccc(N(C)C)cc1 [Trichostatin A, reference compound]", "IC50": "15.3 µM"}
